- Tested on: OVCAR-8 ovarian
- measurementNotes: NCI tumour cell line growth inhibition, 48 h; in the data active = GI50 below about 0.43 µM; inactive = the rest
Possible outcomes: 1 (yes) (active), 0 (no) (inactive)

>>> assignedlabel("O=[N+]([O-])c1ccc([I+]c2ccccc2)cc1")
"0 (no)"
>>> assignedlabel("Cc1ccc2c(c1)/C(=N\\N=C/c1cn(C(C)C)c3ccccc13)C(=O)N2")
"0 (no)"
>>> assignedlabel("COc1cccc(C2C3=C(COC3=O)N(CCO)c3cc4c(cc32)CCC4)c1 (stereo not drawn)")
"1 (yes)"
>>> assignedlabel("CC1(C)CCC(CN2CCN(c3ccc(C(=O)NS(=O)(=O)c4ccc(NCC5CCOCC5)c([N+](=O)[O-])c4)c(Oc4cnc5[nH]ccc5c4)c3)CC2)=C(c2ccc(Cl)cc2)C1")
"0 (no)"
>>> assignedlabel("CC[C@]12C=CCN3CC[C@]4(C(=C(C(=O)OC)C1)Nc1ccccc14)[C@@H]32")
"0 (no)"
>>> assignedlabel("O=C1/C(=C\\c2ccccc2)CN(C(=O)c2ccccc2F)C/C1=C\\c1ccccc1")
"0 (no)"
>>> assignedlabel("C=C(CNCCc1ccc(O)cc1)[C@@H]1CC[C@]2(CO)CC[C@]3(C)[C@H](CC[C@@H]4[C@@]5(C)CCC(NCCO)C(C)(C)[C@@H]5CC[C@]43C)[C@@H]12 (stereo partly drawn)")
"0 (no)"
>>> assignedlabel("CC/C(=C(/CC)c1ccc(OP(=O)([O-])[O-])cc1)c1ccc(OP(=O)([O-])[O-])cc1.N.N.N.N.[Pt+4].[Pt+4]")
"0 (no)"

====

- Tested on: SR leukemia
- measurementNotes: NCI tumour cell line growth inhibition, 48 h
# TGI listing for each entry below
observedProperty: TGI

>>> reading("COC(=O)[C@@H](COC(=O)/C=C/c1ccc(OC(C)=O)c(OC(C)=O)c1)NC(=O)/C=C/c1ccc(OC(C)=O)c(OC(C)=O)c1")
"> 100 µM"
>>> reading("CN(C)c1ccc(N=C(C#N)c2nc(N)nc(N3CCOCC3)n2)cc1")
"> 100 µM"
>>> reading("CCOC(=O)/C(=C/c1c(-c2ccccc2)[nH]c2ccccc12)C(=O)c1ccc(Cl)cc1")
"6.42 µM"
>>> reading("C=C1CCC2C3(C)COC(c4cccc(Cl)c4)OC3CCC2(C)C1/C=C/C1=CCOC1=O (stereo not given)")
"> 100 µM"
>>> reading("O=C(CCl)Nc1ccc(-c2nc3ccccc3s2)cc1")
"5.49 µM"

====

- System: OVCAR-3 ovarian
- measurementNotes: NCI tumour cell line growth inhibition, 48 h
Known GI50 of a selection of compounds
observedProperty: GI50

>>> reading("COc1cc2nc(-c3ccc(Cl)cc3)cc(OCCCN3CCC(O)CC3)c2cc1OC")
"3240 nM"
>>> reading("Cn1cccc1C1CC(=O)N(CCC[Se]C#N)C1=O (centres undefined)")
"1920 nM"
>>> reading("COc1cc2c(c(Br)c1N)-c1cc(Br)c(N)cc1C2=O")
"> 100000 nM"
>>> reading("Cc1ccc2c(c1)/C(=N\\N=C/c1cn(C(C)C)c3ccccc13)C(=O)N2")
"311 nM"
>>> reading("CC/C(=C(/CC)c1ccc(OP(=O)([O-])[O-])cc1)c1ccc(OP(=O)([O-])[O-])cc1.N.N.N.N.[Pt+4].[Pt+4]")
"2490 nM"
>>> reading("CCN1C(=O)N(CC)C2C1NN=c1s/c(=C\\c3ccc([N+](=O)[O-])cc3)c(=O)n12 (centres undefined)")
"283 nM"
>>> reading("C#CCSc1nnnn1-c1ccc(Br)c(C)c1")
"23200 nM"
>>> reading("Oc1ccc(-c2nc(-c3ccc(F)cc3)c(-c3ccncc3)[nH]2)cc1")
"15000 nM"
>>> reading("CC1(C)CCC(CN2CCN(c3ccc(C(=O)NS(=O)(=O)c4ccc(NCC5CCOCC5)c([N+](=O)[O-])c4)c(Oc4cnc5[nH]ccc5c4)c3)CC2)=C(c2ccc(Cl)cc2)C1")
"2310 nM"

From: PubChem BioAssay (NCI)
